B1: E3 ubiquitin-protein ligase Midline-1, residues 172 to 214; numbered along this chain, O15344 (parent)
chain: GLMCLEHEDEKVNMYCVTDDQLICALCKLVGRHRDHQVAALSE

Variants of: B1
protocolText: abundance fitness (aPCA) (normalised: wild type 0, dead -1); higher = more abundant; growth selection in yeast, the domain comes from the species named
reportedConditions: Homo sapiens
endpointLabel: abundance fitness

residuestring="GLMCLEHEDEKVNMYCVTDDQLICALCKLVGRHRDYQVAALSE [H36Y]" observedmeasurement=-0.381
residuestring="GLMCLEHEDEKVNMACVTDDQLICALCKLVGRHRDHQVAALSE [Y15A]" observedmeasurement=0.045
residuestring="GLMCLAHEDEKVNMYCVTDDQLICALCKLVGRHRDHQVAALSE [E6A]" observedmeasurement=-0.085
residuestring="GLMHLEHEDEKVNMYCVTDDQLICALCKLVGRHRDHQVAALSE [C4H]" observedmeasurement=-0.221
residuestring="GLMCLEHWDEKVNMYCVTDDQLICALCKLVGRHRDHQVAALSE [E8W]" observedmeasurement=-0.348
residuestring="GLMCLEHEDEKVNMYCVTDDQLIYALCKLVGRHRDHQVAALSE [C24Y]" observedmeasurement=-0.364
residuestring="GLMCLEHEDHKVNMYCVTDDQLICALCKLVGRHRDHQVAALSE [E10H]" observedmeasurement=0.066

Please examine the following record next.
Value of measured abundance fitness for the entry GLMCLEHEDVKVNMYCVTDDQLICALCKLVGRHRDHQVAALSE [E10V] : -0.414
